- Test system: Plasmodium falciparum
- Run description: Screen against P. falciparum Asexual Blood Stage (ABS), at 5uM
- Assay type: functional, Dd2
- Conditions used: tested at 5 uM
Out of some 65,000 compounds screened, about 2,100 (3.2%) showed an effect of 50% or more. The median lay at about -52%. Many of the other results were omitted from the sample, so strong results are more common in it than they were.
# Lookup of reported INHIBITION keyed by entry
Answer with a number only, understood to be in %.

Below are worked cases with known answers.
CCc1cnc(CNC(=O)NCCc2ccc(O)cc2)s1 : -13.3
Cc1nn(-c2ccccc2)c(C)c1-c1ccnc(N2CCCOCC2)n1 : -64.7
Cc1cccc(CN2C[C@@H](CN3CCCN(C)CC3)[C@@H](CO)C2)n1 : -29.5

q: INHIBITION of COc1ccc(CNCCc2ccn(-c3ccccc3)n2)cc1O on Plasmodium falciparum?
a: 67.1

q: And then c1cnc(N2CCCC(c3cncc(-n4ccnc4)n3)C2)nc1 (centres undefined) , what is it?
a: -20.6

q: What do you get for Cc1nn(-c2ccccc2)c(C)c1-c1ccnc(N2CCC(O)CC2)n1 ?
a: -309
